Values from ChEMBL document CHEMBL1961873

Target: Cytoplasmic tyrosine-protein kinase BMX (Homo sapiens) (UniProt P51813)
Sequence (whole entry): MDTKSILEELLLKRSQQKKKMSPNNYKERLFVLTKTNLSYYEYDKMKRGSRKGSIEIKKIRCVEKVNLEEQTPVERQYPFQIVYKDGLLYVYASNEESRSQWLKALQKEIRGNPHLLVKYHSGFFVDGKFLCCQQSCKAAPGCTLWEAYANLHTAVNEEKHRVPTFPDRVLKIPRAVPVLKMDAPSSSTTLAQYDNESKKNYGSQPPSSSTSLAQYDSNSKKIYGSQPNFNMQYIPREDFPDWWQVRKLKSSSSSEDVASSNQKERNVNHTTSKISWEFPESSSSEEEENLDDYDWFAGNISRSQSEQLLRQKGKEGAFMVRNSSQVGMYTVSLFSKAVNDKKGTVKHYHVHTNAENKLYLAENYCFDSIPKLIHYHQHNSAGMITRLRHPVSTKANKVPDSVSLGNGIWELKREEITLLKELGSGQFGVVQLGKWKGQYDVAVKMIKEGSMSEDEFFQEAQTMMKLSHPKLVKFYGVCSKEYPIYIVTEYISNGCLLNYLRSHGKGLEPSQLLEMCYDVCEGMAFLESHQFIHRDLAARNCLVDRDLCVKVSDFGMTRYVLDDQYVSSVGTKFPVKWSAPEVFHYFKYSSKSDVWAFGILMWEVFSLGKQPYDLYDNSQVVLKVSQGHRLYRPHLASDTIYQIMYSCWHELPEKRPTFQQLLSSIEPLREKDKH
Details: at 0.1 µM
Description: GSK_PKIS: BMX mean inhibition at 0.1 uM [Nanosyn]
Here, each record is paired with measured inhibition data.
Reply numerically in %, unit not repeated.

Recorded results for 5 molecules are shown here.
Fc1ccc(-c2ncn(CCCN3CCOCC3)c2-c2ccncc2)cc1 : 1.9
O=C(Nc1n[nH]c2nc(-c3ccco3)ccc12)C1CC1 : -0.85
N#Cc1ccc(Oc2nccc(-c3c(-c4ccc(F)cc4)ncn3C3CCNCC3)n2)cc1 : 3.25
CN(C)CCOc1ccc(-c2cc(-c3ccc4c(c3)CCC4=NO)c(-c3ccncc3)o2)cc1 : -1.43
Fc1ccc(-c2ncn(C3CCNCC3)c2-c2ccnc(Oc3ccc4c(c3)OCO4)n2)cc1 : 5.5

The measured inhibition associated with `NS(=O)(=O)c1ccc(Nc2cc(-c3ccc(O)c(F)c3)n[nH]2)cc1` reads -5.24

The measured inhibition associated with `CN(C)CCCNc1nccc(-c2c(-c3ccc(F)cc3)nn3cc(C(F)(F)F)ccc23)n1` reads -2.3

----------
Here, each record is paired with measured inhibition data.
molecular target: Sphingosine kinase 1 (Homo sapiens); conditions: at 1 µM;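 also: mean SPHK1 inhibition value reported from the GSK PKIS kinase panel screen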
Reply numerically in %, unit not repeated.

Recorded results for 6 molecules are shown here.
CCC(=O)Nc1ccc(C)c(-c2ccc(C(=O)NCC3CC3)cc2)c1 : 0.8
C[C@@H](Oc1cc(-n2cnc3ccc(OCC4CCN(C)CC4)cc32)sc1C(N)=O)c1ccccc1Cl : 1.57
CN1CCN(CCCNc2nc3ccc(Oc4ccc(NC(=O)Nc5cc(C(F)(F)F)ccc5F)cc4)cc3[nH]2)CC1 : -1.27
O=C1Nc2ccc(I)cc2C1=Cc1cc(Br)c(O)c(Br)c1 : 0.73
N#Cc1ccc(Oc2nccc(-c3c(-c4ccc(F)cc4)ncn3C3CCNCC3)n2)cc1 : 0.37
O=C(Nc1n[nH]c2cc(-c3ccccc3)ccc12)C1CC1 : 0.1

# value of inhibition, Sphingosine kinase 1 (Homo sapiens), item `COc1cc(Nc2ncc3c(C)nc(-c4cccc(Oc5ccccc5)c4)n3n2)cc(OC)c1OC` = -0.76

----------
biological target: Protein kinase C beta type (Homo sapiens); settings: at 0.1 µM;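 also: measured against the PKC-beta2 splice variant, with values reported as mean percent inhibition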
Description: GSK_PKIS: PKC-beta2 (splice variant) mean inhibition at 0.1 uM [Nanosyn]
Here, each record is paired with measured inhibition data.
Reply numerically in %, unit not repeated.

NC(=O)Cc1ccccc1Oc1nccc(-c2c(-c3ccc(F)cc3)ncn2C2CCNCC2)n1 : 1.22
O=C(Nc1n[nH]c2cc(-c3ccccc3)ccc12)C1CC1 : 1.8

The measured inhibition associated with `COc1ccc(C2=C(N3CCc4ccccc43)C(=O)NC2=O)cc1` reads 1.22

The measured inhibition associated with `COc1cccc(-n2cnc3c(N/N=C/c4ccncc4)ncnc32)c1` reads 2.34

----------
target: Proto-oncogene tyrosine-protein kinase receptor Ret (Homo sapiens) (UniProt P07949); conditions: at 0.1 µM;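 also: reported figure is the mean of RET inhibition measurements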
Sequence (P07949 whole entry): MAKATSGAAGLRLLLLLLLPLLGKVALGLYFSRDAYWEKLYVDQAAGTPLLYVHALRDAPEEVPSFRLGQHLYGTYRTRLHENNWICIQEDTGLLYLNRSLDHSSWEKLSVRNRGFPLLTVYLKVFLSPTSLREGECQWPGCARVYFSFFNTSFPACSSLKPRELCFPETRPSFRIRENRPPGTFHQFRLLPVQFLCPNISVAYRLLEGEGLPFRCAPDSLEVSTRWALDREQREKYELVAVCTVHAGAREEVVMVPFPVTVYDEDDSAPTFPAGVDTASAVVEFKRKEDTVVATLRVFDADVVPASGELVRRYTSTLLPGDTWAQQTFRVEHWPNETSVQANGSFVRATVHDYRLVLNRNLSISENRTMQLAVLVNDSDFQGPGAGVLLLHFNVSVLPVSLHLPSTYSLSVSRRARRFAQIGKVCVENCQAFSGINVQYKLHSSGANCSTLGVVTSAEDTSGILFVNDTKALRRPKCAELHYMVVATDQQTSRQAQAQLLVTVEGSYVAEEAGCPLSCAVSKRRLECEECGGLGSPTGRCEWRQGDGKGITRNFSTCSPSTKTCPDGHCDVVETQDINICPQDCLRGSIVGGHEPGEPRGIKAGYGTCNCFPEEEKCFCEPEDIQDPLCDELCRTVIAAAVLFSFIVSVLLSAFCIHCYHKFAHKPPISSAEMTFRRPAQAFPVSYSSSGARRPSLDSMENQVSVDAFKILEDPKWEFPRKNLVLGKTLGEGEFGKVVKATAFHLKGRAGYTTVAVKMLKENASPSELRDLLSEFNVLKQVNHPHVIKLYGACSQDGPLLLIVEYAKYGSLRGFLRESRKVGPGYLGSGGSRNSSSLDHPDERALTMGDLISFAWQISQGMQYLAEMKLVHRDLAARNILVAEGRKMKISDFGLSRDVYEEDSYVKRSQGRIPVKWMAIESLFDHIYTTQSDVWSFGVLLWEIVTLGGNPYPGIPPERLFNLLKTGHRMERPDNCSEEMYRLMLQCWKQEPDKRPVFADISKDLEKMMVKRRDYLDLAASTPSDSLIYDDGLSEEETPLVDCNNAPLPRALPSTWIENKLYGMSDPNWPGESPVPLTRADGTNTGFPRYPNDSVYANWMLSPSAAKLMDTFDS
Measured metric: inhibition (%)
Reply numerically in %, unit not repeated.

CCS(=O)(=O)c1ccc(OC)c(Nc2ncc(-c3ccccc3Cl)o2)c1 : 4
Cc1ccc(C(=O)NC2CCC2)cc1-c1ccc(C(=O)NCC2CC2)cc1 : 7.54
Cc1ccc(C(=O)NC(C)C)cc1-c1ccc(C(=O)NCC2CC2)cc1 : 2.09
Nc1nccc(-c2c(-c3ccc(F)cc3)ncn2C2CCC(O)CC2)n1 (stereo not drawn) : 3.09
O=C(Nc1n[nH]c2nc(-c3ccco3)ccc12)C1CC1 : 8.2
CN(C)CCCNc1nccc(-c2c(-c3ccc(F)cc3)nn3cc(C(F)(F)F)ccc23)n1 : 7.28
COc1cc(Nc2ncc3c(C)nc(-c4cccc(Oc5ccccc5)c4)n3n2)cc(OC)c1OC : 4.22
Clc1ccc(CNc2nccc(-c3cnn4ncccc34)n2)cc1 : 0.88

The measured inhibition associated with `CN1CCN(CCCNc2nc3ccc(Oc4ccc(NC(=O)Nc5cc(C(F)(F)F)ccc5F)cc4)cc3[nH]2)CC1` reads 76.2

The measured inhibition associated with `Fc1ccc(-c2ncn(C3CCNCC3)c2-c2ccnc(Oc3ccc(Oc4ccccc4)cc3)n2)cc1` reads 2.36

The measured inhibition associated with `CN(C)CCOc1ccc(-c2cc(-c3ccc4c(c3)CCC4=NO)c(-c3ccncc3)o2)cc1` reads 3.54

The measured inhibition associated with `CS(=O)(=O)CCNCc1cc(-c2cc3c(Nc4ccc(OCc5cccc(F)c5)c(Cl)c4)ncnc3s2)cs1` reads 7.3

The measured inhibition associated with `Fc1ccc(-c2ncn(C3CCNCC3)c2-c2ccnc(Oc3ccc(F)c(F)c3)n2)cc1` reads 3.19

The measured inhibition associated with `COc1ccc(-c2ccc3c(NC(=O)C4CC4)n[nH]c3n2)cc1` reads 0.65

The measured inhibition associated with `NC(=O)c1cc(-c2ccc(F)cc2)cc(-c2ccncc2)c1N` reads 6.04

The measured inhibition associated with `CNC(=O)c1cncc(/C=C/c2c(C)cccc2C)c1` reads 4.57

The measured inhibition associated with `COc1ccc2cc(-c3c(-c4ccncc4)nc(-c4ccc(S(C)(=O)=O)cc4C)n3C)ccc2c1` reads 4.93

The measured inhibition associated with `C/C(Nc1ccc(S(N)(=O)=O)cc1)=C1/C(=O)Nc2ccccc21` reads 6.38

The measured inhibition associated with `COc1cc2ncn(-c3cc(OCc4ccccc4C(F)(F)F)c(C(C)=O)s3)c2cc1OC` reads 4.62

The measured inhibition associated with `NC(=O)c1ccc(Oc2nccc(-c3c(-c4ccc(F)cc4)ncn3C3CCNCC3)n2)cc1` reads 1.55

The measured inhibition associated with `CCS(=O)(=O)c1ccc(OC)c(Nc2ncc(-c3cccc(-c4ccccc4F)c3)o2)c1` reads 15.4

The measured inhibition associated with `COc1cc(N2CCN(C(C)C)CC2)ccc1Nc1nc(Nc2ccc(F)cc2C(=O)NC[C@@H](O)CO)c2cc[nH]c2n1` reads 5.61

----------
target: Mitogen-activated protein kinase 14 (Homo sapiens) (UniProt Q16539); conditions: at 1 µM;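 also: values are mean percent inhibition of p38alpha kinase activity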
Sequence (Q16539 whole entry): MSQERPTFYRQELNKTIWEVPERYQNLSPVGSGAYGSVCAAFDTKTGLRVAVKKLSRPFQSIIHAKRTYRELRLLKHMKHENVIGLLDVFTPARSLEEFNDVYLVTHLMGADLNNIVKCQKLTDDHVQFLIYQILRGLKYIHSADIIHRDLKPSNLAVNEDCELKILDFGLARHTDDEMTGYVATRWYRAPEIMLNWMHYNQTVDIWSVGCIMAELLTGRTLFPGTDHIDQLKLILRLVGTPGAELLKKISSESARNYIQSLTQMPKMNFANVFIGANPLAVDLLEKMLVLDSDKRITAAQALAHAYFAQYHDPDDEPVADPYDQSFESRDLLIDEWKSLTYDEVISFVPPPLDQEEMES
Measured metric: inhibition (%)
Reply numerically in %, unit not repeated.

Recorded results for 10 compounds are shown here.
COc1cc(C)c(N(C)C(=O)CN(C)C)cc1Nc1nc(Nc2cccc(F)c2C(N)=O)c2cc[nH]c2n1 : 3.91
O=C1Nc2ccccc2/C1=C/Nc1ccc(-n2cncn2)cc1 : 6.86
O=C(Nc1n[nH]c2nc(-c3ccc(O)cc3)c(Br)cc12)C1CC1 : 16
CCC(=O)Nc1ccc(C)c(-c2ccc(C(=O)NCC3CC3)cc2)c1 : 62.9
COc1cc(Nc2ncc3c(C)nc(-c4cccc(C(F)(F)F)c4)n3n2)cc(OC)c1OC : 6.99
COC(=O)Nc1nc2ccc(Sc3ccc(NC(=O)Nc4cc(C(F)(F)F)ccc4F)cc3)cc2[nH]1 : 39.3
CN(c1ccc(NC(=O)Nc2c(Cl)cccc2Cl)cc1)c1ccnc(Nc2cccc(CS(C)(=O)=O)c2)n1 : 3.34
COc1ccc(-c2ccc3c(NC(=O)C4CC4)n[nH]c3n2)cc1 : 5.28
O=C(Nc1n[nH]c2cc(-c3ccccc3)ccc12)C1CC1 : 11.2
COc1ccc(C2=C(N3CCc4ccccc43)C(=O)NC2=O)cc1 : 12.2

# value of inhibition, Mitogen-activated protein kinase 14 (Homo sapiens) (UniProt Q16539), item `Clc1ccc(CNc2nccc(-c3cnn4ncccc34)n2)cc1` = 7.97

# value of inhibition, Mitogen-activated protein kinase 14 (Homo sapiens) (UniProt Q16539), item `CN1CCN(CCCNc2nc3ccc(Oc4ccc(NC(=O)Nc5cc(C(F)(F)F)ccc5F)cc4)cc3[nH]2)CC1` = 51.8

# value of inhibition, Mitogen-activated protein kinase 14 (Homo sapiens) (UniProt Q16539), item `Fc1ccc(-c2ncn(CCCN3CCOCC3)c2-c2ccncc2)cc1` = 48

# value of inhibition, Mitogen-activated protein kinase 14 (Homo sapiens) (UniProt Q16539), item `C[C@@H](Oc1cc(-n2cnc3ccc(OC4CCN(C)CC4)cc32)sc1C(N)=O)c1ccccc1Cl` = 10.7

# value of inhibition, Mitogen-activated protein kinase 14 (Homo sapiens) (UniProt Q16539), item `COc1cc2ncn(-c3cc(OCc4cccs4)c(C(N)=O)s3)c2cc1OC` = 12.3

# value of inhibition, Mitogen-activated protein kinase 14 (Homo sapiens) (UniProt Q16539), item `CCc1cccc(CC)c1/C=C/c1cncc(C(=O)NC)c1` = 8.94

# value of inhibition, Mitogen-activated protein kinase 14 (Homo sapiens) (UniProt Q16539), item `CN(C)CCCNc1nccc(-c2c(-c3ccc(F)cc3)nn3cc(C(F)(F)F)ccc23)n1` = 67.8

# value of inhibition, Mitogen-activated protein kinase 14 (Homo sapiens) (UniProt Q16539), item `O=C1Nc2ccc(I)cc2C1=Cc1cc(Br)c(O)c(Br)c1` = 8.57

# value of inhibition, Mitogen-activated protein kinase 14 (Homo sapiens) (UniProt Q16539), item `c1ccc(Oc2ccc(Nc3ncc(-c4ccccc4)o3)cc2)cc1` = 8.09

# value of inhibition, Mitogen-activated protein kinase 14 (Homo sapiens) (UniProt Q16539), item `COc1cc(N2CCN(C(C)C)CC2)ccc1Nc1nc(Nc2ccc(F)cc2C(=O)NC[C@@H](O)CO)c2cc[nH]c2n1` = 9.88
